- measured.on: DPP-IV (Homo sapiens, UniProt P27487)
- Sequence (P27487 whole entry): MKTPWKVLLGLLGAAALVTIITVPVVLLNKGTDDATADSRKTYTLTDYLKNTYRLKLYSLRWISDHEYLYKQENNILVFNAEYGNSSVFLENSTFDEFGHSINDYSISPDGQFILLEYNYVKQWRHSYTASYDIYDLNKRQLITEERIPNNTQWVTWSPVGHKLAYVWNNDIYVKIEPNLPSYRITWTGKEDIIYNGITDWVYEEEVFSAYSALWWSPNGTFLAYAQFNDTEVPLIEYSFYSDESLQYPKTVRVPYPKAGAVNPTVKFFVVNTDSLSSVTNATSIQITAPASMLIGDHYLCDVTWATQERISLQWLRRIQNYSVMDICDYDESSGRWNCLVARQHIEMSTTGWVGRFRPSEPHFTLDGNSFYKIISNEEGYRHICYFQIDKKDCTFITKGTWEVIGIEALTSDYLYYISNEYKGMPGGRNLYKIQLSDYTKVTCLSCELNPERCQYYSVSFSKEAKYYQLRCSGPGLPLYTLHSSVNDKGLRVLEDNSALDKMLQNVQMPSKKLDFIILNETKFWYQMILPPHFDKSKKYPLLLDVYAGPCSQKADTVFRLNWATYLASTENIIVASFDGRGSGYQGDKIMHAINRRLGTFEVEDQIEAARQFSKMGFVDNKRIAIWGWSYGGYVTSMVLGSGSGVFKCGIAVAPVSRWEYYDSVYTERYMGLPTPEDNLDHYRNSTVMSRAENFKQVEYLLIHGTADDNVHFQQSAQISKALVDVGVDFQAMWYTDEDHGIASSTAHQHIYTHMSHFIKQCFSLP
Counter-ions that a name gives are not always drawn.
parameter.measured: log10 IC50 (log10 of the value in nM)
Hello, just confirming the data are log10 of IC50 with units of nM.

Recorded log10 IC50, per entry:
CC1(C)C2CCC(CNCC(=O)N3CCC[C@H]3C#N)C1C2 (single isomer, unassigned) [Ex. 25, monohydrochloride] :: 2.15
N#C[C@@H]1CCCN1C(=O)CNCCc1ccccn1 [Ex. 30, dihydrochloride] :: 2.81

Value of measured log10 IC50 for the entry COc1ccccc1CCNCC(=O)N1CCC[C@H]1C#N [Ex. 36, monohydrochloride] : 2.20

Value of measured log10 IC50 for the entry N#C[C@@H]1CCCN1C(=O)CNCCc1ccccc1F [Ex. 42, monohydrochloride] : 2.38

Value of measured log10 IC50 for the entry COc1cc(CCNCC(=O)N2CCC[C@H]2C#N)cc(OC)c1 [Ex. 46, monohydrochloride] : 2.18

Value of measured log10 IC50 for the entry `COc1cc(Br)c(CCNCC(=O)N2CCC[C@H]2C#N)cc1OC` : 2.33

Value of measured log10 IC50 for the entry COc1ccc(OC)c(CCNCC(=O)N2CCC[C@H]2C#N)c1 [Ex. 26, monohydrochloride] : 2.23

Value of measured log10 IC50 for the entry N#C[C@@H]1CCCN1C(=O)CN[C@@H]1CCN(Cc2ccccc2)C1 [Ex. 17, dihydrochloride] : 1.78

Value of measured log10 IC50 for the entry CN(CCCNCC(=O)N1CCC[C@H]1C#N)c1ccccc1 [Ex. 22, dihydrochloride] : 2.18

###

- measured.on: DPP-IV (Homo sapiens, UniProt P27487)
Where a name gives a salt, the structure may show the parent alone.
# t = IC50 below 100 nM (exclusive); f = IC50 at/above 100 nM

Check out these entries, answers already filled in.
CCOc1ccc(CCNCC(=O)N2CCC[C@H]2C#N)cc1 [Ex. 16, monohydrochloride] :: f
N#C[C@@H]1CCCN1C(=O)CNCCc1ccc(Cl)cc1Cl [Ex. 39, monohydrochloride] :: f
N#C[C@@H]1CCCN1C(=O)CNCCCN1CCCC1=O [Ex. 14, monohydrochloride] :: f
COc1cccc(CCNCC(=O)N2CCC[C@H]2C#N)c1 [Ex. 19, monohydrochloride] :: f
CC(C)OCCCNCC(=O)N1CCC[C@H]1C#N [Ex. 12, monohydrochloride] :: f

Please check: IC50 for N#C[C@@H]1CCCN1C(=O)CNCCNc1ncccc1Cl [Ex. 7B] , strictly under 100 nM or not?
f

Please check: IC50 for N#C[C@@H]1CCCN1C(=O)CNCCc1ccccc1Cl [Ex. 7D] , strictly under 100 nM or not?
f

Please check: IC50 for N#C[C@@H]1CCCN1C(=O)CNCCNc1ncc(Cl)cc1Cl [Ex. 9C] , strictly under 100 nM or not?
f

Please check: IC50 for N#C[C@@H]1CCCN1C(=O)CNCc1ccccc1Sc1ccccc1CO [Ex. 35, monohydrochloride] , strictly under 100 nM or not?
f

Please check: IC50 for N#C[C@@H]1CCCN1C(=O)CNC1CCN(Cc2ccccc2)CC1 [Ex. 66, monohydrochloride] , strictly under 100 nM or not?
t

Please check: IC50 for COc1ccc(CCNCC(=O)N2CCC[C@H]2C#N)cc1OC [Ex. 23, monohydrochloride] , strictly under 100 nM or not?
t

Please check: IC50 for N#C[C@@H]1CCCN1C(=O)CNCCNc1ncc(C(F)(F)F)cc1Cl [Ex. 9A] , strictly under 100 nM or not?
f

Please check: IC50 for N#C[C@@H]1CCCN1C(=O)CNCCC1=CCCCC1 [Ex. 27, monohydrochloride] , strictly under 100 nM or not?
f
